Molecular target: Lysine-specific demethylase 5A (Homo sapiens, UniProt P29375)
Sequence (P29375 whole entry, the tested form may be a part): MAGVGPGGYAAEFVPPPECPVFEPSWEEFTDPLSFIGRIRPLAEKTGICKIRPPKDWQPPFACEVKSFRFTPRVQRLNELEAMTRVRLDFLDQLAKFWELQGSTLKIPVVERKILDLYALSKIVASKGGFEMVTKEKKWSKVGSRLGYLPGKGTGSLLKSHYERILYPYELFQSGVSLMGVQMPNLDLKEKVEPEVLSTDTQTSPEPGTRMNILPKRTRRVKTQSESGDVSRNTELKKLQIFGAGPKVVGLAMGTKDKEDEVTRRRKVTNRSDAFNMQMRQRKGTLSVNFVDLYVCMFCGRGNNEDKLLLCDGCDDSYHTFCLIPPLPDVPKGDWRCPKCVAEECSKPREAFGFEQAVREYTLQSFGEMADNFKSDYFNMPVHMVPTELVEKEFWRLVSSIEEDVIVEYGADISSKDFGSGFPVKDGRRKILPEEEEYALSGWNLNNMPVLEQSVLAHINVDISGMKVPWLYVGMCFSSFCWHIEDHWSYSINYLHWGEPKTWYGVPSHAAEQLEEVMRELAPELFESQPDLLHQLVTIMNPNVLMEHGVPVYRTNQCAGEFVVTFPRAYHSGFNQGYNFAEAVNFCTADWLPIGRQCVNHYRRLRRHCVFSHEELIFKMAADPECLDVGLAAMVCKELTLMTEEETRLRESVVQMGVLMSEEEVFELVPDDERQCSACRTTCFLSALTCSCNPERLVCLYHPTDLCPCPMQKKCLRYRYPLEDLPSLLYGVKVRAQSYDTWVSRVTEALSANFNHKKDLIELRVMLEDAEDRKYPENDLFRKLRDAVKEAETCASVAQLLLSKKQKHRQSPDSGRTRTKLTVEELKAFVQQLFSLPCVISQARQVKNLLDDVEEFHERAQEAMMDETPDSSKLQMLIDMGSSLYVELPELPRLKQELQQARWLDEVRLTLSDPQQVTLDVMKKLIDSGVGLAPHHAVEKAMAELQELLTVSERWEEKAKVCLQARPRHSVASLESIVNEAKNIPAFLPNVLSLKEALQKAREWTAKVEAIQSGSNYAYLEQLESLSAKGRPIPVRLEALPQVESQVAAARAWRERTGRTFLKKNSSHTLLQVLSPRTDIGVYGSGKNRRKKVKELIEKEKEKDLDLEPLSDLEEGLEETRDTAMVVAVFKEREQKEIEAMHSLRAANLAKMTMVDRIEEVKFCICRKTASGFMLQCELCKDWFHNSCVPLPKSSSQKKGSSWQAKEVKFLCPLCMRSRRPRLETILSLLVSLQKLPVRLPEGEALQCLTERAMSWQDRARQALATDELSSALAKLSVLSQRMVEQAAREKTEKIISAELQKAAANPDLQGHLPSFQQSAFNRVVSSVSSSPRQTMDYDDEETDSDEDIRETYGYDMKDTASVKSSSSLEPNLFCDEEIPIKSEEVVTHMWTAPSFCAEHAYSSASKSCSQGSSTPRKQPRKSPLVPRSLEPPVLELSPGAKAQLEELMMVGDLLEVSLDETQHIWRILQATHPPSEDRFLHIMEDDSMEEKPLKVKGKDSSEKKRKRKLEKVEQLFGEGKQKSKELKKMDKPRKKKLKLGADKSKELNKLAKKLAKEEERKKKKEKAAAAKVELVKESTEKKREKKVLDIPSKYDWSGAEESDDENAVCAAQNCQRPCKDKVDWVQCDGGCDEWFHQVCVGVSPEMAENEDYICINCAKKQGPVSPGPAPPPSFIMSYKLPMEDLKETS
Experiment: Inhibition of ARID/PHD1 domain truncated human N-terminal His-SUMO-tagged KDM5A (1 to 739 residues) expressed in Escherichia coli using H3K4me3 as substrate preincubated for 15 mins followed by substrate addition measured after 15 mins in presence of 0.01 mM alpha-KG by FDH coupled assat
pIC50: −log10 of the molar value.
MEASURED METRIC: pIC50

CC(C)c1cc(C(=O)N2CC[C@H](NC(=O)C3CC3)C2)[nH]n1 | 5.74

###

Target: UniProtKB P29375
Assay: Inhibition of ARID/PHD1 domain truncated human N-terminal His-SUMO-tagged KDM5A (1 to 588 residues) expressed in Escherichia coli using H3K4me3 as substrate preincubated for 15 mins followed by substrate addition measured after 15 mins in presence of 0.1 mM alpha-KG by FDH coupled assat
Settings: in the assay text read “1 to 739 residues” for “1 to 588 residues”
pIC50: −log10 of the molar value.
MEASURED METRIC: pIC50

CC(C)c1cc(C(=O)N2CC[C@@H](NC(=O)C3CC3)C2)[nH]n1 | 5.62

Hey, just so you know, these numbers are from ChEMBL document CHEMBL4020845.
